# Test system: LOC_OS03G12390-cb001
# experimentalProtocol: thermal shift delta Tm vs DMSO control; higher = stronger stabilization (binding);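 note: purified Escherichia coli-expressed rice kinase domain construct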
# runParameters: 12.5 µM; protein concentration 2 µM
recordedMetric: thermal shift delta Tm (°C)
Quick reminder: number only, in °C, skip the unit.

Please look up its thermal shift delta Tm: "CS(=O)(=O)CCNCc1ccc(-c2ccc3ncnc(Nc4ccc(OCc5cccc(F)c5)c(Cl)c4)c3c2)o1" 0.39

Give its thermal shift delta Tm value. Item: "CC[C@@](C)(Nc1ccnc(-c2c[nH]c3ncccc23)n1)C(=O)NCC(F)(F)F" 0.52

Recorded thermal shift delta Tm of "O=C(O)c1ccc(-c2c[nH]c3ncc(-c4ccccc4)cc23)cc1C1CCCC1" , please. 0.39

Data request, read-out thermal shift delta Tm, for COc1cc(Nc2c(C#N)cnc3cc(OCCCN4CCN(C)CC4)c(OC)cc23)c(Cl)cc1Cl [Bosutinib (SKI-606)] 0.07

May I ask what thermal shift delta Tm has been recorded for "CC(=O)Nc1nc(C)c(-c2ccc(Cl)c(S(=O)(=O)NCCO)c2)s1" ? 0.64

Would you kindly share the measured thermal shift delta Tm for "CCS(=O)(=O)N1CCN(c2ccc(Nc3ncc(C(N)=O)c(NC4CC4)n3)cc2)CC1" ? 6.9

Return reported thermal shift delta Tm; argument: "O=C(Nc1ccc(OC(F)(F)F)cc1)c1sccc1NCc1ccnc2ccccc12" 0.88

# query: thermal shift delta Tm of entry COc1nccc(-c2c(-c3ccc(F)cc3)ncn2C2CCC(O)CC2)n1 (centres undefined) 0.08

Looking for the measured thermal shift delta Tm of "c1cn2cc(-c3ccc4cn[nH]c4c3)nc(Nc3ccc(N4CCOCC4)cc3)c2n1" , can you help? 3.99

For the molecule shown here, "C[C@@H](Oc1ccc2[nH]nc(/C=C/c3cnn(CCO)c3)c2c1)c1c(Cl)cncc1Cl" , give the reported thermal shift delta Tm. 10.5

State the recorded thermal shift delta Tm for this entry: CC1=C(C(=O)Nc2ccc3[nH]ncc3c2)C(c2ccc(F)cc2)NC(=O)N1 (centres undefined) 0.72

Suppose we examine the molecule CC(C)c1cnn2c(NCc3ccccc3-n3cccn3)nc(OC3CCCNC3)nc12 (centres undefined) ; what thermal shift delta Tm value has been reported? 0.22

Given the molecule "COc1cc2ncnc(Nc3ccc(Cl)cc3F)c2cc1OC" , what is its reported thermal shift delta Tm? 2.87

Reported thermal shift delta Tm for "CC(C)(C)NS(=O)(=O)c1cncc(-c2cc(F)c3nc(N)nn3c2)c1" : what is it? 0.19

Entry under review: "COc1cc(N2CCN(C)CC2)ccc1Nc1nccc(-c2cn(C)c3cnccc23)n1" . Reported thermal shift delta Tm? 9.57

For the molecule shown here, "O=C1NC(=O)/C(=C/c2cccc(C(F)(F)F)c2)S1" , give the reported thermal shift delta Tm. 0.17

What does the data say about its thermal shift delta Tm? Entry: COc1nccnc1NS(=O)(=O)c1ccc(NC(=O)/C=C/c2ccc([N+](=O)[O-])s2)cc1 [Necrosulfonamide] -0.66

Suppose we examine the molecule "O=C(O)c1ccc2c3c1cccc3c(=O)n1c3ccccc3nc21" ; what thermal shift delta Tm value has been reported? 2.82

Fill blank: measured thermal shift delta Tm of the molecule "Cc1cc(Nc2nc(N[C@@H](C)c3ccc(F)cc3)c(C#N)cc2F)n[nH]1" is ____. 4.41

---

# Test system: LOC_OS02G54510-cb004
# experimentalProtocol: thermal shift delta Tm vs DMSO control; higher = stronger stabilization (binding)
# runParameters: 12.5 µM; protein concentration 2 µM
Counter-ions that a name gives are not always drawn.
Returns one of yes or no; yes when thermal shift delta Tm is >= 0.7 °C.

Has "O=C(O)c1ccc(Nc2ncc3c(n2)-c2ccc(Cl)cc2C(c2c(F)cccc2F)=NC3)cc1" a recorded thermal shift delta Tm greater than or equal to 0.7 °C? yes

Textbook exercise: given the entry "C=CC(=O)N1CCC[C@@H](n2nc(-c3ccc(Oc4ccccc4)cc3)c3c(N)ncnc32)C1" , state whether its thermal shift delta Tm is greater than or equal to 0.7 °C. yes

Check this compound for thermal shift delta Tm at or above 0.7 °C: "COc1cc(-c2cc(-c3ccc(N4CCNCC4)cc3)cnc2C)cc(OC)c1OC" no

Has "Nc1nccc(Oc2ccc(NC(=O)c3c[nH]cc(-c4ccc(F)cc4)c3=O)cc2F)c1Cl" a recorded thermal shift delta Tm greater than or equal to 0.7 °C? yes

Exam item: decide whether the reported thermal shift delta Tm for "CCn1c(-c2nonc2N)nc2cnc(Oc3cccc(NC(=O)c4ccc(OCCN5CCOCC5)cc4)c3)cc21" is at least 0.7 °C. no

Confirm if thermal shift delta Tm reported for the compound "Cc1cc(Nc2ncnc3ccc(NC4=NC(C)(C)CO4)cc23)ccc1Oc1ccn2ncnc2c1" is 0.7 °C or above. no

Hello, I need to know if O=C1c2ccc(Nc3ccc(F)cc3F)cc2CCc2ccc(OC[C@H](O)CO)cc21 [Skepinone-L] has measured thermal shift delta Tm not below 0.7 °C. Thanks! no

Is reported thermal shift delta Tm greater than or equal to 0.7 °C here: "CC(C)(C)c1nc(-c2ccc(NC(=O)Nc3cccc(C(F)(F)F)c3)c3ccccc23)c2c(N)nccn12" yes

Entry "O=c1sn(-c2cccc3ccccc23)c(=O)n1Cc1ccccc1" : is its thermal shift delta Tm no less than 0.7 °C? no

Is the recorded value of thermal shift delta Tm equal to or greater than 0.7 °C for this compound? "COc1cc2ncnc(Oc3ccc(CC(=O)Nc4cnn(C(C)C)c4)cc3)c2cc1OC" yes

Reported thermal shift delta Tm at or above 0.7 °C? "COc1cc2nccc(Oc3ccc(NC(=O)Nc4cc(C)on4)c(Cl)c3)c2cc1OC" yes

Reported thermal shift delta Tm at or above 0.7 °C? "C[C@@H]1COCCN1c1cc(C2([S@](C)(=N)=O)CC2)nc(-c2cc[nH]c3nccc2-3)n1" no

# bool: thermal shift delta Tm of "CC(C)(C)S(=O)(=O)c1ccc2nccc(Nc3n[nH]c4ccc(F)cc34)c2c1" >= 0.7 °C no

# check: thermal shift delta Tm of "CN(c1ccccc1CNc1nc(Nc2ccc3c(c2)CC(=O)N3)ncc1C(F)(F)F)S(C)(=O)=O" is greater than or equal to 0.7 °C yes

Is the recorded value of thermal shift delta Tm equal to or greater than 0.7 °C for this compound? "CNC(=O)c1cc(COc2nnc(Nc3ccc(Cl)cc3)c3ccoc23)ccn1" no

For this compound, is measured thermal shift delta Tm 0.7 °C or higher? "CCOc1cn(-c2ccc(F)cc2C)nc1C(=O)Nc1ccc(Oc2ccnc3cc(OC)c(OC)cc23)c(F)c1" no

Given "CN(C)C[C@@H]1CCn2cc(c3ccccc32)C2=C(C(=O)NC2=O)c2cn(c3ccccc23)CCO1" , state whether its thermal shift delta Tm is at least 0.7 °C. no

Evaluate "C[C@@H]1COC(Nc2ccc3ncnc(Nc4ccc(OCc5nccs5)c(Cl)c4)c3c2)=N1" : thermal shift delta Tm at minimum 0.7 °C? no

Given "CC(C)=CC[C@@H](O)C1=CC(=O)c2c(O)ccc(O)c2C1=O" , state whether its thermal shift delta Tm is at least 0.7 °C. no

Is it the case that Nc1ncccc1-c1nc2ccc(-c3ccccc3)nc2n1-c1ccc(C2(N)CCC2)cc1 [Miransertib (ARQ 092) HCl] has thermal shift delta Tm reaching or exceeding 0.7 °C? no

Could you please find out whether "Clc1ccc(C2(c3ccc(-c4cn[nH]c4)cc3)CCNCC2)cc1" has thermal shift delta Tm that meets 0.7 °C or exceeds it? no

API: above_or_equal(metric=thermal shift delta Tm, cutoff=0.7 °C) for item N=C(N)NC(=N)NCCc1ccccc1 [Phenformin HCl] no

Kindly determine if thermal shift delta Tm recorded for "Oc1cccc(-c2nc(N3CCOCC3)c3oc4ncccc4c3n2)c1" is above or exactly 0.7 °C. no

Please indicate if the recorded thermal shift delta Tm for "C[C@@H](Oc1cc(-n2cnc3ccc(CN4CCN(C)CC4)cc32)sc1C(N)=O)c1ccccc1C(F)(F)F" meets or exceeds 0.7 °C. no

Can "O=C(O)c1ccc2c(c1)nc(Nc1cccc(Cl)c1)c1ccncc12" be said to have thermal shift delta Tm at or above 0.7 °C? yes

# bool: thermal shift delta Tm of "CNC(=O)c1cc(Oc2ccc(NC(=O)Nc3cc(C(C)(C)C)nn3-c3ccc4ncccc4c3)c(F)c2)ccn1" >= 0.7 °C yes

Could you verify whether the entry "CC(=O)O/N=C1/C(c2c(O)[nH]c3cc(Br)ccc23)=Nc2ccccc21" shows thermal shift delta Tm of no less than 0.7 °C? yes

Has "C=CC(=O)N[C@H]1CCOC[C@H]1Nc1ncc2cc(-c3c(Cl)c(OC)cc(OC)c3Cl)ccc2n1" a recorded thermal shift delta Tm greater than or equal to 0.7 °C? no

Confirm if thermal shift delta Tm reported for the compound "COC(=O)c1ccc2c(c1)NC(=O)/C2=C(\Nc1ccc(N(C)C(=O)CN2CCN(C)CC2)cc1)c1ccccc1" is 0.7 °C or above. yes

Does the reported thermal shift delta Tm for "CONC(=O)c1ccccc1Nc1cc(Nc2cc(C)nn2C(C)C)ncc1Cl" fall at or above the 0.7 °C mark? no

Dear colleague, could you confirm whether "Cc1ccccc1-n1c(Cn2nc(-c3cccc(O)c3)c3c(N)ncnc32)nc2cccc(C)c2c1=O" has thermal shift delta Tm at or above 0.7 °C? no

Record "CO[C@@H](C)Cn1c(=O)n(C)c2cnc3ccc(-c4cncc(C(C)(C)O)c4)cc3c21" ; criterion: thermal shift delta Tm no lower than 0.7 °C. Met? no

Hi, just wondering whether O=C(Nc1cccc(Cl)c1)Nc1ncc(CCNc2ncnc3ccsc23)s1 [SNS-314 Mesylate] shows thermal shift delta Tm of 0.7 °C or higher. no
